tested on: Platelet; experiment: Ratio of IC50 for thrombin-induced pig platelet aggregation to IC50 for ADP-induced pig platelet aggregation; assay type: functional, Sus scrofa
property-measured: Ratio IC50
Lab note: write the figure by itself, no unit.

| item-smiles | Ratio IC50 |
| --- | --- |
| C[C@@H](O)[C@H](N)C(=O)N1Cc2[nH]c3ccccc3c2C[C@H]1C(=O)O | 3.6 |

Summary for this compound, N[C@@H](CC(=O)O)C(=O)N1Cc2[nH]c3ccccc3c2C[C@H]1C(=O)O : Ratio IC50 is 4

GET /value?item= NCCCC[C@H](N)C(=O)N1Cc2[nH]c3ccccc3c2C[C@H]1C(=O)O &field=Ratio IC50 returns 3

Sure, the documented Ratio IC50 for CSCC[C@H](N)C(=O)N1Cc2[nH]c3ccccc3c2C[C@H]1C(=O)O is 3.9

Ratio IC50 reading for N[C@@H](Cc1ccc(O)cc1)C(=O)N1Cc2[nH]c3ccccc3c2C[C@H]1C(=O)O : 3.7

// C[C@H](N)C(=O)N1Cc2[nH]c3ccccc3c2C[C@H]1C(=O)O : Ratio IC50 value = 4.1

* * *

system: Platelet; assay: Ratio of IC50 for platelet-activating factor-induced pig platelet aggregation to IC50 for ADP-induced pig platelet aggregation; type: functional, Sus scrofa
y if Ratio IC50 is below 2. n if not; exact matches included in n.

Observe how each entry below is paired with its result.
| item-smiles | target | label-class |
| --- | --- | --- |
| NCCCC[C@H](N)C(=O)N1Cc2[nH]c3ccccc3c2C[C@H]1C(=O)O | Platelet | y |
| CC[C@H](C)[C@H](N)C(=O)N1Cc2[nH]c3ccccc3c2C[C@H]1C(=O)O | Platelet | y |
| NC(=O)CC[C@H](N)C(=O)N1Cc2[nH]c3ccccc3c2C[C@H]1C(=O)O | Platelet | n |
| CC(C)C[C@H](N)C(=O)N1Cc2[nH]c3ccccc3c2C[C@H]1C(=O)O | Platelet | y |
| C[C@@H](O)[C@H](N)C(=O)N1Cc2[nH]c3ccccc3c2C[C@H]1C(=O)O | Platelet | y |
| N[C@@H](Cc1ccccc1)C(=O)N1Cc2[nH]c3ccccc3c2C[C@H]1C(=O)O | Platelet | y |
| N[C@@H](Cc1ccc(O)cc1)C(=O)N1Cc2[nH]c3ccccc3c2C[C@H]1C(=O)O | Platelet | y |
| CC(C)[C@H](N)C(=O)N1Cc2[nH]c3ccccc3c2C[C@H]1C(=O)O | Platelet | n |
| N[C@@H](Cc1c[nH]c2ccccc12)C(=O)N1Cc2[nH]c3ccccc3c2C[C@H]1C(=O)O | Platelet | y |
| CSCC[C@H](N)C(=O)N1Cc2[nH]c3ccccc3c2C[C@H]1C(=O)O | Platelet | y |

Shifting focus to the compound that follows.
Input N[C@@H](Cc1cnc[nH]1)C(=O)N1Cc2[nH]c3ccccc3c2C[C@H]1C(=O)O ; condition: Ratio IC50 strictly below 2. Does it hold?
n

* * *

tested on: Platelet; test: Ratio of IC50 for thrombin-induced pig platelet aggregation to IC50 for ADP-induced pig platelet aggregation; assay type: functional, Sus scrofa
property-measured: Ratio IC50
Form: value (number only, do not type unit).

| item-smiles | property-measured | result-number |
| --- | --- | --- |
| NCC(=O)N1Cc2[nH]c3ccccc3c2C[C@H]1C(=O)O | Ratio IC50 | 3.7 |

Param item: N[C@@H](CCC(=O)O)C(=O)N1Cc2[nH]c3ccccc3c2C[C@H]1C(=O)O ; param system: Platelet; output Ratio IC50: 3

The compound N[C@@H](CO)C(=O)N1Cc2[nH]c3ccccc3c2C[C@H]1C(=O)O , when measured on Platelet, yielded Ratio IC50 of 3.6

The compound N[C@@H](Cc1c[nH]c2ccccc12)C(=O)N1Cc2[nH]c3ccccc3c2C[C@H]1C(=O)O , tested on Platelet, showed Ratio IC50 of 2.8

* * *

Recorded Ratio IC50 for the following molecules
test system: Platelet; experiment: Ratio of IC50 for platelet-activating factor-induced pig platelet aggregation to IC50 for ADP-induced pig platelet aggregation; assay type: functional, Sus scrofa
No unit in the answer, please; the number alone is enough.

| item-smiles | Ratio IC50 |
| --- | --- |
| NCC(=O)N1Cc2[nH]c3ccccc3c2C[C@H]1C(=O)O | 2 |

Noted for N[C@@H](CC(=O)O)C(=O)N1Cc2[nH]c3ccccc3c2C[C@H]1C(=O)O : its Ratio IC50 reads 2

In plain terms, C[C@H](N)C(=O)N1Cc2[nH]c3ccccc3c2C[C@H]1C(=O)O has a documented Ratio IC50 of 2
